- Test description: Example C: HTL0018318 plasma and urine pharmacokinetics
- Assay type: in vivo, human
- Assay conditions: human, plasma, oral, 25 mg + DPZ, 1st dose
Assay readout: Cmax

>>> result("CCOC(=O)N1C2CCC1CC(N1CCC3(CC1)CNC(=O)C3)C2 (stereo not shown)")
"139 ng/mL"

###

- Test description: Example D: HTL0018318 plasma pharmacokinetics
- Assay type: in vivo, human
- Assay conditions: human, plasma; 25 mg, visit day 16; read-out: Ctrough, arithmetic mean ± SD
- Method: Selected plasma pharmacokinetics (PK) parameters for HTL0018318 were estimated during the period over which PD assessments were made. Details of assessment times for all endpoints are described below. Pharmacokinetics (PK) were evaluated via blood samples, for determination of HTL0018318 concentrations in plasma. […] Bioanalysis used a fully validated method and all samples were analysed within the established period of storage stability. […]
Assay readout: concentration at 16 day (ng/mL)

>>> readout_number("CCOC(=O)N1C2CCC1CC(N1CCC3(CC1)CNC(=O)C3)C2 (stereo not shown) [HTL0018318]")
66.7

###

- Test description: Example D: HTL0018318 plasma pharmacokinetics
- Assay type: in vivo, human
- Assay conditions: human, plasma, 15 mg, visit day 16; read-out: Cmax, arithmetic mean ± SD
Assay readout: Cmax

>>> result("CCOC(=O)N1C2CCC1CC(N1CCC3(CC1)CNC(=O)C3)C2 (stereo not shown) [HTL0018318]")
"136 ng/mL"

###

- Test description: Example D: HTL0018318 plasma pharmacokinetics
- Format: in vivo, human
- Assay conditions: human, plasma, 15 mg, visit day 28; read-out: Cmax, arithmetic mean ± SD
Assay readout: Cmax

>>> result("CCOC(=O)N1C2CCC1CC(N1CCC3(CC1)CNC(=O)C3)C2 (stereo not shown)")
"123 ng/mL"

###

- Test description: Example D: HTL0018318 plasma pharmacokinetics
- Format: in vivo, human
- Assay conditions: human, plasma, 25 mg, visit day 11; read-out: Cmax, arithmetic mean ± SD
Assay readout: Cmax (ng/mL)

>>> readout_number("CCOC(=O)N1C2CCC1CC(N1CCC3(CC1)CNC(=O)C3)C2 (stereo not shown)")
222

###

- Test description: Example C: HTL0018318 plasma and urine pharmacokinetics
- Format: in vivo, human
- Assay conditions: human, urine and plasma, oral, 15 mg + DPZ, 5th dose
Assay readout: CL renal (mL/min)

>>> readout_number("CCOC(=O)N1C2CCC1CC(N1CCC3(CC1)CNC(=O)C3)C2 (stereo not shown)")
109

###

- Test description: Example D: HTL0018318 plasma pharmacokinetics
- Format: in vivo, human
- Assay conditions: human, plasma, 10 mg, visit day 6; read-out: AUC0-4 h, arithmetic mean ± SD
Assay readout: AUC(0-t)

>>> result("CCOC(=O)N1C2CCC1CC(N1CCC3(CC1)CNC(=O)C3)C2 (stereo not shown)")
"244 ng·h/mL"

###

- Test description: Example C: HTL0018318 plasma and urine pharmacokinetics
- Format: in vivo, human
- Assay conditions: human, plasma, oral, 15 mg + DPZ, 5th dose; Tau = 24 hrs; read-out: AUC0-tau (mean)
Assay readout: AUC (ng·h/mL)

>>> readout_number("CCOC(=O)N1C2CCC1CC(N1CCC3(CC1)CNC(=O)C3)C2 (stereo not shown)")
1150

###

- Test description: Example C: HTL0018318 plasma and urine pharmacokinetics
- Type: in vivo, human
- Assay conditions: human, urine and plasma, oral, 15 mg, 15 mg only, 1st dose
Assay readout: CL renal (mL/min)

>>> readout_number("CCOC(=O)N1C2CCC1CC(N1CCC3(CC1)CNC(=O)C3)C2 (stereo not shown) [HTL0018318]")
109

Attribution: patent US20240165097A1
